Every entry's value here was drawn from patent US20150322137A1.

biological target: F protein of human metapneumovirus strain JPS03-180 (type A1), on infectious virus (human metapneumovirus, strain JPS03-180 …); assay: cell-based or functional assay
Assign IC50, neutralizing activity (hMPV infection of LLC-MK2 cells; GraphPad Prism 6) to each entry below.
Answer with a number only, understood to be in µg/mL.

Supply recorded IC50, neutralizing activity (hMPV infection of LLC-MK2 cells; GraphPad Prism 6) for EV046143 (antibody, human IgG1, kappa, V domains shown) VH: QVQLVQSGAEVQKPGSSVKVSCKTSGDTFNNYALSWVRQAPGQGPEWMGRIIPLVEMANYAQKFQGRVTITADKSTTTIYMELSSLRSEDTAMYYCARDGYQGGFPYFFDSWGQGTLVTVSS VL: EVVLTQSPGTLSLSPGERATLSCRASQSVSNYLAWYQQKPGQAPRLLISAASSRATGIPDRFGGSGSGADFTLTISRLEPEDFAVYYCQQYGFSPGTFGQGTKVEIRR here.
0.157

Supply recorded IC50, neutralizing activity (hMPV infection of LLC-MK2 cells; GraphPad Prism 6) for EV046142 (antibody, human IgG1, lambda, V domains shown) VH: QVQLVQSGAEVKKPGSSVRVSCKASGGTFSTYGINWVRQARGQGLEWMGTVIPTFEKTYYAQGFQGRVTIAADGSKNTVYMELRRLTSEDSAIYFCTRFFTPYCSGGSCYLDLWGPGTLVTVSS VL: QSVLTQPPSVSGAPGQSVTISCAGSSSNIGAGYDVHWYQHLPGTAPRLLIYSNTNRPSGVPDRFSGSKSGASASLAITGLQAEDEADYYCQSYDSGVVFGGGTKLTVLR here.
0.212

Supply recorded IC50, neutralizing activity (hMPV infection of LLC-MK2 cells; GraphPad Prism 6) for EV046116 (antibody, human IgG1, kappa, V domains shown) VH: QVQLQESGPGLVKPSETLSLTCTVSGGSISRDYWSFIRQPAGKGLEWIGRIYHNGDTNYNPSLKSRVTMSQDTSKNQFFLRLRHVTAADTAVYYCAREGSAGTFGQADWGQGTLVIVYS VL: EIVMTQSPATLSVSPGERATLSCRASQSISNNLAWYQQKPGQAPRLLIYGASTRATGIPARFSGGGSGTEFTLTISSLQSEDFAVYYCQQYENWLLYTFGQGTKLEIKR here.
0.351
